# Read-out: Glutamate-cysteine ligase regulatory (GCLM), GCLM (gene 2730)
# Procedure details: LTEA_HepaRG_GCLM: Life Technologies and Expression Analysis (LTEA) Assay for Glutamate-cysteine ligase regulatory (GCLM) using HepaRG (AID 2283500)
# Condition context: mRNA level, 48 h; actives raise or lower the signal
The source made the active and inactive calls. How the source made its calls: active means hit-call score of the fitted dose curve at least 0.9, where 1 is the maximum; inactive means score below 0.9.
Write down one outcome, taken from T = active, F = inactive

Consider the following illustrative entries.
- Molecule: "N#CSCSC#N"
  Assigned class: "T"
- Molecule: "CCOC(=O)CC(SP(=O)(OC)OC)C(=O)OCC (stereo not given)"
  Assigned class: "F"
- Molecule: "COP(=O)(NC(C)=O)SC (stereo not given)"
  Assigned class: "F"

Req: Hi, do you know how CN(C)C(=O)Nc1cccc(C(F)(F)F)c1 came out in this test?
Resp: F

Req: State the result this test recorded for Cc1cc(C2CC2)nc(Nc2ccccc2)n1 .
Resp: F

---

# Procedure details: APR_HepG2_CellCycleArrest_24hr: Apredica 24-hour HepG2 Assay for Cell Cycle Arrest (AID 2282905);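 further: cell cycle arrest scored as ratio of 2N to 4N nuclear DNA content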
# Condition context: imaging, actives raise or lower the signal
The source made the active and inactive calls. Rule for the calls: active = hit-call score of the fitted dose curve at least 0.9, where 1 is the maximum; inactive = score below 0.9.
Return exactly one item of active, inactive

Worked examples follow.
- Compound: "CCOC(=O)COc1cc(-c2nn(C)c(OC(F)F)c2Cl)c(F)cc1Cl"
  Assigned class: "inactive"
- Compound: "COP(=O)(OC)SCn1c(=O)oc2cc(Cl)cnc21"
  Assigned class: "inactive"
- Compound: "CCC(=NOC/C=C/Cl)C1=C(O)CC(C2CCOCC2)CC1=O (stereo unspecified)"
  Assigned class: "inactive"
- Compound: "O=[N+]([O-])c1cc(C(F)(F)F)c(Cl)c([N+](=O)[O-])c1Nc1ncc(C(F)(F)F)cc1Cl"
  Assigned class: "active"
- Compound: "COc1cccc(C(=O)NN(C(=O)c2cc(C)cc(C)c2)C(C)(C)C)c1C"
  Assigned class: "inactive"
- Compound: "CC1=NNC(=O)N(/N=C/c2cccnc2)C1"
  Assigned class: "inactive"
- Compound: "Cc1ccn2nc(S(=O)(=O)Nc3c(F)cccc3F)nc2n1"
  Assigned class: "inactive"
- Compound: "CC1(C(=O)Nc2ccc(O)c(Cl)c2Cl)CCCCC1"
  Assigned class: "inactive"

Next item in the queue.
Req: Outcome logged for CCOP(=S)(Oc1cnc(C(C)(C)C)nc1)OC(C)C (stereo unspecified) in this assay:
Resp: active

---

# Read-out: Urokinase-type plasminogen activator receptor (uPAR), PLAUR (gene 5329)
# Procedure details: BSK_BE3C_uPAR: BioMAP Diversity Plus: BE3C Assay for Urokinase-type plasminogen activator receptor (uPAR) Biomarker Activity (AID 2283039)
# Condition context: primary human bronchial epithelial cells; actives raise or lower the signal
Activity calls are given as the source filed them. Rule for the calls: active = hit-call score of the fitted dose curve at least 0.9, where 1 is the maximum; inactive = score below 0.9.
Entry note: the call must match one of TRUE = active, FALSE = inactive

Before answering, review these 2 worked examples.
- Compound: "Cc1cc(C2CC2)nc(Nc2ccccc2)n1"
  Assigned class: "FALSE"
- Compound: "CN1COCN(Cc2cnc(Cl)s2)C1=N[N+](=O)[O-]"
  Assigned class: "FALSE"

Req: Which outcome was assigned to COc1ccc(C(=CC(=O)N2CCOCC2)c2ccc(Cl)cc2)cc1OC in this test?
Resp: FALSE

Req: // return assay outcome for CCOC(=O)CC(SP(=O)(OC)OC)C(=O)OCC (stereo not given)
Resp: FALSE

Req: In this assay, the call recorded for COc1cccc(C(=O)NN(C(=O)c2cc(C)cc(C)c2)C(C)(C)C)c1C was what?
Resp: FALSE

Req: Test call for this compound, please: CC1(C(=O)Nc2ccc(O)c(Cl)c2Cl)CCCCC1
Resp: FALSE

Req: Assay outcome for CNC(=O)Oc1cccc2c1OC(C)(C)O2 : what was it?
Resp: FALSE

Req: # outcome recorded in this test, key = CCCOCC(=Nc1ccc(Cl)cc1C(F)(F)F)n1ccnc1
Resp: TRUE

Req: What was the test verdict on O=c1ccc(=O)[nH][nH]1 ?
Resp: FALSE

Req: Which result was noted for this compound in the test: CC(COc1ccc(Oc2ccccc2)cc1)Oc1ccccn1 (stereo not given)
Resp: FALSE

---

# Procedure details: CCTE_Shafer_MEA_acute_cross_correlation_HWHM: CCTE's Neural Acute Assay for Cross Correlation at Half Width at Half Maximum, Shafer Lab (AID 2284026);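 further: percent change per well from pre-dose baseline in spike cross-correlogram half width; hits are a decrease in cross-correlogram half width relative to DMSO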;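 on outcome: spontaneous network firing of rat primary cortical neurons on multiwell microelectrode arrays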
Activity calls are given as the source filed them. How the source made its calls: active means hit-call score of the fitted dose curve at least 0.9, where 1 is the maximum; inactive means score below 0.9.
Write down one outcome, taken from true (1) (active), false (0) (inactive)

- Molecule: "Cc1ccn2nc(S(=O)(=O)Nc3c(F)cccc3F)nc2n1"
  Assigned class: "false (0)"

Req: Recorded call for CN(C)[C@@H]1C(=O)C(C(N)=O)=C(O)[C@@]2(O)C(=O)C3=C(O)c4c(O)cccc4[C@@](C)(O)[C@H]3[C@H](O)[C@@H]12 ?
Resp: false (0)

Req: What classification did CCc1cccc(C)c1N(C(=O)CCl)C(C)COC (stereo not drawn) end up with in this test?
Resp: true (1)

Req: // outcome(item) with item = C[N+]1(C)CCCCC1
Resp: false (0)

---

# Procedure details: APR_HepG2_CellLoss_24hr: Apredica 24-hour HepG2 Assay for Cell Loss (AID 2282908)
# Condition context: high-content imaging
Calls of active or inactive are those of the source. The calls were made as follows: active = hit-call score of the fitted dose curve at least 0.9, where 1 is the maximum; inactive = score below 0.9.
One label from this list, please: yes (1) for active, no (0) for inactive

- Compound: "CCc1cccc(CC)c1N(COC)C(=O)CCl"
  Assigned class: "yes (1)"
- Compound: "CCOP(=O)(OCC)Oc1cc(C)nc(C(C)C)n1"
  Assigned class: "no (0)"
- Compound: "CC(Oc1cccc(Cl)c1)C(=O)O (stereo not given)"
  Assigned class: "no (0)"
- Compound: "CN1COCN(Cc2cnc(Cl)s2)C1=N[N+](=O)[O-]"
  Assigned class: "no (0)"
- Compound: "CCCSP(=O)(OCC)SCCC"
  Assigned class: "no (0)"

Req: Hi, do you know how CSC1=N[C@@](C)(c2ccccc2)C(=O)N1Nc1ccccc1 came out in this test?
Resp: no (0)

---

# Read-out: Alpha-fetoprotein (AFP) gene, AFP (gene 174)
# Procedure details: LTEA_HepaRG_AFP: Life Technologies and Expression Analysis (LTEA) Assay for Alpha-fetoprotein (AFP) gene using HepaRG (AID 2283472)
# Condition context: mRNA level, 48 h; actives raise or lower the signal
The source made the active and inactive calls. The calls were made as follows: active = hit-call score of the fitted dose curve at least 0.9, where 1 is the maximum; inactive = score below 0.9.
// classify into 1 for active, 0 for inactive

- Structure notation: "CC1=NNC(=O)N(/N=C/c2cccnc2)C1"
  Assigned class: 0
- Structure notation: "CNC(=O)ON=C(C)SC"
  Assigned class: 0
- Structure notation: "CN(C)[C@@H]1C(=O)C(C(N)=O)=C(O)[C@@]2(O)C(=O)C3=C(O)c4c(O)cccc4[C@@](C)(O)[C@H]3[C@H](O)[C@@H]12"
  Assigned class: 0

Note: attention shifts to another entry.
Req: Identify the outcome logged in this assay for the molecule shown: CSC1=N[C@@](C)(c2ccccc2)C(=O)N1Nc1ccccc1
Resp: 1

---

# Procedure details: Tanguay_ZF_120hpf_AXIS_legacy: (Legacy) Oregon State University Tanguay Lab 120 Hour Post-fertilization zebrafish Assay for Body Axis Malformation (AID 2283635)
Results filed as inconclusive are left out. Calls of active or inactive are those of the source. Rule for the calls: active = hit-call score of the fitted dose curve at least 0.9, where 1 is the maximum; inconclusive = response in the unintended direction; inactive = score below 0.9.
Thanks in advance; please answer with one of these: class 1 for active, class 0 for inactive

- Compound: "C[Si](Cn1cncn1)(c1ccc(F)cc1)c1ccc(F)cc1"
  Assigned class: "class 1"
- Compound: "CCc1cnc(C2=NC(C)(C(C)C)C(=O)N2)c(C(=O)O)c1 (stereo unspecified)"
  Assigned class: "class 0"
- Compound: "COP(=O)(NC(C)=O)SC (stereo unspecified)"
  Assigned class: "class 0"

Req: Dear all, I need the recorded test outcome for CCOP(=S)(OCC)SCCSCC , thank you.
Resp: class 0

Req: What outcome does the record of this test show for CCCCOC(=O)[C@@H](C)Oc1ccc(Oc2ccc(C#N)cc2F)cc1 ?
Resp: class 0

Req: Assay result, entry CSc1nnc(C(C)(C)C)c(=O)n1N — outcome?
Resp: class 0

Req: Which outcome was assigned to CCCCN(CC)c1c([N+](=O)[O-])cc(C(F)(F)F)cc1[N+](=O)[O-] in this test?
Resp: class 0

Req: GET /call?item= CCOP(=S)(OCC)OC(Cl)C(Cl)(Cl)Cl (stereo unspecified) returns the recorded outcome of this test.
Resp: class 0

Req: For CC(C)=CC1C(C(=O)OCN2C(=O)C3=C(CCCC3)C2=O)C1(C)C (stereo unspecified) , which call appears in the assay record?
Resp: class 0

Req: Would you mind telling me which call this test gave C[N+]1(C)CCCCC1 ?
Resp: class 0

Req: Each compound tested received a call. Report the one for Cc1nn(-c2cc(NS(C)(=O)=O)c(Cl)cc2Cl)c(=O)n1C(F)F .
Resp: class 0

Req: Please share the test call associated with CC(=NC#N)N(C)Cc1ccc(Cl)nc1 .
Resp: class 0

Req: // return assay outcome for Nc1c(Cl)cc([N+](=O)[O-])cc1Cl
Resp: class 1

Req: State the result this test recorded for CC(Oc1cccc(Cl)c1)C(=O)O (stereo unspecified) .
Resp: class 0

Req: Which result was noted for this compound in the test: CCCCOC(=O)c1ccccc1C(=O)O
Resp: class 0

Req: Record request — test call for CCC(=O)Nc1ccc(Cl)c(Cl)c1
Resp: class 0

Req: How was CNC(=O)Oc1cccc2c1OC(C)(C)O2 classified in this test?
Resp: class 0

Req: Just curious, what result did CNc1cnn(-c2cccc(C(F)(F)F)c2)c(=O)c1Cl get here?
Resp: class 0

Req: Called result for CC1=NNC(=O)N(/N=C/c2cccnc2)C1
Resp: class 0

Req: For C=C(C)[C@H]1Cc2c(ccc3c2O[C@@H]2COc4cc(OC)c(OC)cc4[C@@H]2C3=O)O1 , what call appears in the results of this test?
Resp: class 0

Req: Hello, I am checking results. What call was entered for O=C(O)c1cc(Oc2ccc(C(F)(F)F)cc2Cl)ccc1[N+](=O)[O-] ?
Resp: class 0

These measurements were taken from PubChem BioAssay (EPA / NIEHS).
